- measured-target: T1, mouse BR3 extracellular domain (mouse, UniProt Q9D8D0 1-64)
- T1 construct: also called mBR3-ECD; mBR-ECD
- T1 sequence: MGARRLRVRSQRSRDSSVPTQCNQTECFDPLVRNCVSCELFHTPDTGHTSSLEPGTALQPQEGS
- assay-info: SPR BIAcore-2000, ECD on chip, Fab injected
Listing of entries alongside the reported pKd.
pKd (log units): -log10 of the concentration in mol/L.

>>> measured_value("V3-11 Fab (Fab, V domains shown, soluble Fab in SPR) VH: EVQLVESGGGLVQPGGSLRLSCAASGFTISSNSIHWVRQAPGKGLEWVAWITPSDGNTDYADSVKGRFTISADTSKNTAYLQMNSLRAEDTAVYYCARRVCYNNLGVCAGAMDYWGQGTLVTVSS VL: DIQMTQSPSSLSASVGDRVTITCRASQDVSTAVAWYQQKPGKAPKLLIYSASFLYSGVPSRFSGSGSGTDFTLTISSLQPEDFATYYCQQTSTSPPTFGQGTKVEIKR")
7.69
>>> measured_value("V3-12 Fab (Fab, V domains shown, soluble Fab in SPR) VH: EVQLVESGGGLVQPGGSLRLSCAASGFTISSNSIHWVRQAPGKGLEWVAWITPSDGNTDYADSVKGRFTISADTSKNTAYLQMNSLRAEDTAVYYCARRVCYDRARVCAGAMDYWGQGTLVTVSS VL: DIQMTQSPSSLSASVGDRVTITCRASQDVSTAVAWYQQKPGKAPKLLIYSASFLYSGVPSRFSGSGSGTDFTLTISSLQPEDFATYYCQQSYSTPPTFGQGTKVEIKR")
7.44
>>> measured_value("V3-1 Fab (Fab, V domains shown, soluble Fab in SPR) VH: EVQLVESGGGLVQPGGSLRLSCAASGFTISSNSIHWVRQAPGKGLEWVAWITPSDGNTDYADSVKGRFTISADTSKNTAYLQMNSLRAEDTAVYYCARRVCYNRLGVCAGGMDYWGQGTLVTVSS VL: DIQMTQSPSSLSASVGDRVTITCRASQDVSTAVAWYQQKPGKAPKLLIYSASFLYSGVPSRFSGSGSGTDFTLTISSLQPEDFATYYCQQSRITPPTFGQGTKVEIKR")
8.60

Qu. Consider the binder shown here: V3-13 Fab (Fab, V domains shown, soluble Fab in SPR) VH: EVQLVESGGGLVQPGGSLRLSCAASGFTISRRSIHWVRQAPGKGLEWVAWITPSDGNTDYADSVKGRFTISADTSKNTAYLQMNSLRAEDTAVYYCARRVCYSSVRGCAGAMDYWGQGTLVTVSS VL: DIQMTQSPSSLSASVGDRVTITCRASQDVSTAVAWYQQKPGKAPKLLIYGASNLYSGVPSRFSGSGSGTDFTLTISSLQPEDFATYYCQQSHASPPTFGQGTKVEIKR What is its recorded pKd?
Ans. 7.40
